measuredTarget: T1, SARS-CoV-2-RBD (328-533)-Fc (SARS-CoV-2)
T1 construct: also called RBD-Fc
assayName: SPR (Biacore T200), RBD captured on anti-human Fc chip, scFv injected
Each record here notes measured koff.
valueType: koff (s⁻¹)

binder	valueType	resultValue
2020EP60-F05 scFv (scFv) scFv: QVQLVESGGGVVQPGGSLRLSCAASGFTFSSYGMHWVRQAPGKGLEWVAVISYDGSNKYYADSVKGRFTISRDNSKNTLYLQMNSLRAEDTAVYYCAKARVALGYFDWLLYDGMDVWGQGTTVTVSSGGGGSGGGGSGGGGSSSELTQPPSVSVSPGQTASITCSGDKLGNKYVFWYQQKPGQSPILVIYQDNRRPSGIPERFSGSNSGNTATLTISGDPAMDEADYYCQAWDSSTVVFGGGTKLTVL	koff	0.00302
2020EP53-D06 scFv (scFv) scFv: QVQLVQSGGGVVQPGRSLRLSCAASGFTFSSYAMHWVRQAPGKGLEWVAVISYDGSNKYYADSVKGRFTISRDNSKNTLYLQMNSLRAEDTAVYYCARDGEDGYNYISPFDYWGQGTLVTVSSGGGGSGGGGSGGGGSSYELTQPPSVSVAPGETARITCRGNDIGSKSVHWYQQKPGQAPVLVLYYDSDRPSGIPERFSGSNSGNTATLTISSVEAGDEADYYCQVWDIDVVFGGGTKLTVL	koff	0.0011
2020EP54-E12 scFv (scFv, also called 2020EP054-E12) scFv: EVQLVESGGGLVQPGGSLRLSCAVTGFIVSSNYMNWVRQAPGKGLEWVSVIYSGGTTYYADSVKGRFTISRDKSKNTLYLQMNNLRAEDTAMYYCATLGNDYGDYGTDYWGQGTLVTVSSGGGGSGGGGSGGGGSQLVLTQPPSVSVSPGQTASISCSGDRLGQKYTSWYQQRPGQSPVLIMYQDNKRPSGIPERFSGSNSGNTATLTISGIQSMDEADYYCQVWDSGSDHAVFGGGTQLTVL	koff	0.000469
2020EP54-H01 scFv (scFv, also called 2020EP054-H01) scFv: QVQLVESGGGVVQPGRSLRLSCAASGFTFSSYGMHWVRQAPGKGLEWVAVISYDGSNKYYADSVKGRFTISRDNSKNTLYLQMNSLRAEDTAVYYCAKGRGWYLDYWGQGTLVTVSSGGGGSGGGGSGGGGSNFMLTQPPSVSVSPGQTASITCSGDKLGDKYACWYQQKPGQSPVLVMYEDYKRPSGIPARFSGSNSGNTATLTISRVEGGDEGDYYCQVWDSRGPEVIFGGGTKLTVL	koff	0.00265
